Biological target: Human Cbl-b (residues 40-426) (Homo sapiens (Human))
Sequence (Q13191 40-426): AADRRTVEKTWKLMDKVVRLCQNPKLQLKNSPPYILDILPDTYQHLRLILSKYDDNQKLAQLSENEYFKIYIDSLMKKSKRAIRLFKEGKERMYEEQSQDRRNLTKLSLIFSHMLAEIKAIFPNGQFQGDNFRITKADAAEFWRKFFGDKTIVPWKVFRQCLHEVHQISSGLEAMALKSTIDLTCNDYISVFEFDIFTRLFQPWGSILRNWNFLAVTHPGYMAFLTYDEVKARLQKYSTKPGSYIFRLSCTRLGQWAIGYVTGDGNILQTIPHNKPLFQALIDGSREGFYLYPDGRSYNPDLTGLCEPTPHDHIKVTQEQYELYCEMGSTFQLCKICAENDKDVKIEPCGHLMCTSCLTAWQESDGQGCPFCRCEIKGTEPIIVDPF
Experiment: Cbl-b SPR assay
Type: binding
Conditions: C-cbl SPR Kd vs Cbl-b SPR Kd
Endpoint: Fold of selectivity (×)
Numeric answer only, unit × assumed.

Record request: Fold of selectivity value, item CC(C)[C@H]1CN(C)CCN1Cc1cc2c(c(C(F)(F)F)c1)CN(c1cc([C@]3(c4nncn4C)C[C@H](C)C3)cc(NC3CCCC3)n1)C2=O (single isomer, unassigned)
7.7

Lookup CO[C@H]1C[C@](c2cccc(N3Cc4c(cc(CNC5C[C@@H]6C[C@H]5CO6)cc4C(F)(F)F)C3=O)c2)(c2nncn2C)C1 (some centres unmarked)
12

Lookup COC1CC([C@@H](c2cccc(N3Cc4c(cc(CNC5(C)CCC5)cc4C(F)(F)F)C3=O)c2)c2nncn2C)C1 (single isomer, unassigned) [Compound 133]
7.7

New cases:
Record request: Fold of selectivity value, item CO[C@H]1C[C@@](c2cc(NC(C)C)cc(N3Cc4c(cc(CNC5(C)CCC5)cc4C(F)(F)F)C3=O)c2)(c2nncn2C)C1
7.5

Lookup CO[C@H]1C[C@@](c2cccc(N3Cc4c(cc(CNC5(C)CCC5)cc4C(F)F)C3=O)c2)(c2nncn2C)C1
15

Lookup CC(C)[C@H]1CN(C)CCN1Cc1cc(Cl)c2c(c1)C(=O)N(c1cccc(C3(c4nncn4C)CC4(COC4)C3)c1)C2 (single isomer, unassigned)
4.1

Lookup Cn1cnnc1[C@]1(c2cc(OC3CCCC3)cc(N3Cc4c(cc(CNC5(C)CCC5)cc4C(F)(F)F)C3=O)c2)C[C@@H](C)C1
7.6

Lookup Cn1cnnc1[C@@H](c1cccc(N2Cc3c(cc(CNC4(C)CCC4)cc3C(F)(F)F)C2=O)c1)C1CC(F)C1 (single isomer, unassigned) [Compound 129]
13

###

// c-Cbl (residues 47-435) (Homo sapiens (Human), UniProt P22681) Kd records
Numeric answer only, unit µM assumed.

Please review the following examples before continuing.
Record request: Kd value, item CO[C@H]1C[C@](c2cc(NC(C)C)cc(N3Cc4c(cc(CNC5(C)CCC5)cc4C(F)(F)F)C3=O)c2)(c2nncn2C)C1
0.007

Lookup CO[C@H]1C[C@](c2cccc(N3Cc4c(cc(CNC5CC(C)(C)C5)cc4C(F)(F)F)C3=O)c2)(c2nncn2C)C1
0.013

Lookup C[C@H]1CCCN(Cc2cc3c(c(C(F)(F)F)c2)CN(c2cccc(C4(c5nncn5C)CC5(COC5)C4)c2)C3=O)C1 (single isomer, unassigned)
0.081

Lookup Cn1cnnc1C(c1cccc(N2Cc3c(cc(CNC4(C)CCC4)cc3C(F)(F)F)C2=O)c1)[C@H]1C[C@@H](CC#N)C1 (single isomer, unassigned) [Compound 365]
0.0072

Lookup CCOc1cc(N2Cc3c(cc(CNC4(C)CCC4)cc3C(F)(F)F)C2=O)cc([C@]2(c3nncn3C)C[C@H](OC)C2)c1
0.017

Lookup Cn1cnnc1[C@@H](c1cccc(N2Cc3c(Cl)cc(CNC4(C)CCC4)cc3C2=O)c1)C1COC1
0.016

New cases:
Record request: Kd value, item Cn1cnnc1C1(c2cccc(N3Cc4c(cc(CNC5(C)CCC5)cc4C(F)(F)F)C3=O)c2)C[S+]([O-])C1 (stereo not shown)
0.12

Lookup CO[C@H]1C[C@@](c2cc(NCCC#N)cc(N3Cc4c(cc(CNC5(C)CCC5)cc4C(F)(F)F)C3=O)c2)(c2nncn2C)C1
0.1

Lookup Cn1cnnc1[C@]1(c2cccc(N3Cc4c(cc(CNC5(C)CCC5)cc4C(F)(F)F)C3=O)c2)C[C@H](CF)C1
0.0039

Lookup Cn1cnnc1[C@@](O)(c1cccc(N2Cc3c(cc(CNC4(C)CCC4)cc3C(F)(F)F)C2=O)c1)C(F)(F)F (single isomer, unassigned)
0.056

Lookup CO[C@H]1C[C@](c2cccc(N3Cc4c(cc(CNCC5(F)CC5)cc4C(F)(F)F)C3=O)c2)(c2nncn2C)C1
0.098

Lookup CO[C@H]1C[C@](c2cccc(N3Cc4c(cc(CNCC5CCC5)cc4C(F)(F)F)C3=O)c2)(c2nncn2C)C1
0.012

Lookup CO[C@H]1C[C@](c2cccc(N3Cc4c(cc(CNC5COC5)cc4C(F)(F)F)C3=O)c2)(c2nncn2C)C1
1.1

Lookup CO[C@H]1C[C@](c2cccc(N3Cc4c(cc(CN[C@@H]5C[C@H]5C)cc4C(F)(F)F)C3=O)c2)(c2nncn2C)C1
0.069

Lookup Cn1cnnc1[C@H](c1cccc(N2Cc3c(cc(CNC4(C)CCC4)cc3C(F)(F)F)C2=O)c1)C1CCOCC1.O=CO (single isomer, unassigned) [Compound 291, formate]
0.13

Lookup CO[C@H]1C[C@@](c2cc(NC(C)C)cc(N3Cc4c(cc(CNC5(C)CCC5)cc4C(F)(F)F)C3=O)c2)(c2nncn2C)C1
0.022
